# targetOrSystem: T1, human LILRB2 expressed on cells (293T-LILRB2, CHO-K1-LILRB2) (human, UniProt Q8N423 22-597)
# T1 construct: whole, on cells; the cell line is named under assay; also called HEK293T-LILRB2
# T1 sequence (Q8N423 22-597): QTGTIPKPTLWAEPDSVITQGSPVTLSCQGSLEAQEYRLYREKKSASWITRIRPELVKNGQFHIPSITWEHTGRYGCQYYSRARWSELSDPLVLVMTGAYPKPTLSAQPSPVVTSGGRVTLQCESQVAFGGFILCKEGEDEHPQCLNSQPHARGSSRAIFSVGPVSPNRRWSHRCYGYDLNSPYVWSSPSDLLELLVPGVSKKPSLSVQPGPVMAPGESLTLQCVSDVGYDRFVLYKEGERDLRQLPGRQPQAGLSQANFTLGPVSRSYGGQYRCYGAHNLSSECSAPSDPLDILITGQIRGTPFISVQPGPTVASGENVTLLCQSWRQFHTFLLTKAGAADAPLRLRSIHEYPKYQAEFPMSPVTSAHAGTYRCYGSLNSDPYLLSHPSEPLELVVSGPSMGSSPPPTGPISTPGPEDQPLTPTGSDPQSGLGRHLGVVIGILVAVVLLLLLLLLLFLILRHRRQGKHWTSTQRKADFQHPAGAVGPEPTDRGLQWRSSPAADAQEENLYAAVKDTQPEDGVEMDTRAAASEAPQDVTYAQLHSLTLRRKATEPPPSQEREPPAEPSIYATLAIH
# testProtocol: flow cytometry, His-HLA-A2 tetramer (competitor) bound to 293T-LILRB2 cells, relative to no antibody
# Design: concentration or dose not given beside the values
Reported % no Ab values are given for each entry in this list.
Quick reminder: number only, in %, skip the unit.

Answered cases to consult:
Antibody 2E1_FH9 (antibody, V domains shown) VH: EVQLVESGGGLVQPGGSLRLSCAVSGYSITSGYYWNWIRQAPGKGLEWVAYISYDGNNLYNPSLKNRFTISRDTSKNTFYLQMNSLRAEDTAVYYCAREESTMITTAWFAYWGQGTLVTVSS VL: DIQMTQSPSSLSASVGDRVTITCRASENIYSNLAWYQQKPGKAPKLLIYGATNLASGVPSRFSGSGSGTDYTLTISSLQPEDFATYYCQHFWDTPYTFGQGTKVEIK :: 47.1
Antibody 2E1_GF1 (antibody, V domains shown) VH: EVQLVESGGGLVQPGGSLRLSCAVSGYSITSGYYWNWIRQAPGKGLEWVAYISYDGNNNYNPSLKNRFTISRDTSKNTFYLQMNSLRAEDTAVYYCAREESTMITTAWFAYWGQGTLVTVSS VL: DIQMTQSPSSLSASVGDRVTITCRASEVIYSNLAWYQQKPGKAPKLLIYGATNLASGVPSRFSGSGSGTDYTLTISSLQPEDFATYYCQHFWDTPYTFGQGTKVEIK :: 47.9

Task: # return recorded % no Ab for entry Antibody 2E1_FG2 (antibody, V domains shown) VH: EVQLVESGGGLVQPGGSLRLSCAVSGYSITSGYYWNWIRQAPGKGLEWVAYISYDGNTNYNPSLKNRFTISRDTSKNTFYLQMNSLRAEDTAVYYCAREESTMITTAWFAYWGQGTLVTVSS VL: DIQMTQSPSSLSASVGDRVTITCRASENIYSNLAWYQQKPGKAPKLLIYGATNLASGVPSRFSGSGSGTDYTLTISSLQPEDFATYYCQHFWDTPYVFGQGTKVEIK
Result: 53.6
